- tested.target: T1, cynomolgus monkey TLR4 expressed on stably transfected CHO-K1 cells (cynomolgus monkey, UniProt Q9TSP2 24-826 (Papio anubis entry))
- T1 construct: Transfected alone; also called CHO cells expressing the cynomolgus monkey TLR4
- T1 chain: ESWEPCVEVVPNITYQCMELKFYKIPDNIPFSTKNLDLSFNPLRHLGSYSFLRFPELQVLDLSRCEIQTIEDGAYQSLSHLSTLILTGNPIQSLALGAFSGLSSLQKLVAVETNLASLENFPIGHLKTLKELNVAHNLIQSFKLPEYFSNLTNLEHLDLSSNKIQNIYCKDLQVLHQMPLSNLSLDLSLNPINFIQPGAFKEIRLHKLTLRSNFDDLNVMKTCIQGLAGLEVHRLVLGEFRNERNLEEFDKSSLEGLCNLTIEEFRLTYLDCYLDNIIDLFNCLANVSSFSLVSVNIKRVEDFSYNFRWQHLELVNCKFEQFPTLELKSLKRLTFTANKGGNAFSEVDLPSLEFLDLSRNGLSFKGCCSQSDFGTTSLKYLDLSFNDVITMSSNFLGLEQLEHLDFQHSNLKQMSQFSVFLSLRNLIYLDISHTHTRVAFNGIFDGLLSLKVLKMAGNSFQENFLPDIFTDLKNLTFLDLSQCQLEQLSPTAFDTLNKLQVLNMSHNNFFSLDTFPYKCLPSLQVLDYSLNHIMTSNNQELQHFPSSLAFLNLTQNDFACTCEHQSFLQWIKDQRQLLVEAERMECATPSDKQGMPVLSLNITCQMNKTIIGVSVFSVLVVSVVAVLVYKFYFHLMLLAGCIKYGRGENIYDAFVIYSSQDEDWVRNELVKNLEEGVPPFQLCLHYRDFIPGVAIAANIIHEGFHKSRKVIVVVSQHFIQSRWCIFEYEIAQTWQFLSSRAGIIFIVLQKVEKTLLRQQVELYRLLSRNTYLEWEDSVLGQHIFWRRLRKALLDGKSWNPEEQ
- test.summary: summary table of species specificity (flow cytometry results)

binder: 1G12 antibody (IgG1) (antibody, V domains shown, also called 1G12 Mab) VH: QVQLQESGPGLVKPSDTLSLTCAVSGYSITGGYSWHWIRQPPGKGLEWMGYIHYSGYTDFNPSLKTRITISRDTSKNQFSLKLSSVTAVDTAVYYCARKDSGRYWPYWGQGTLVTVSS VL: EIVLTQSPDFQSVTPKEKVTITCRASQSISDHLHWYQQKPDQSPKLLIKYASHAISGVPSRFSGSGSGTDFTLTINSLEAEDAATYYCQQGHSFPLTFGGGTKVEIK
binding result: binds

binder: 1C10 antibody (IgG1) (antibody, V domains shown, also called 1C10 Mab) VH: QVQLQESGPGLVKPSDTLSLTCAVSGYSITGGYSWHWIRQPPGKGLEWMGYIHYSGYTDFNPSLKTRITISRDTSKNQFSLKLSSVTAVDTAVYYCARKDSGKNFPYWGQGTLVTVSS VL: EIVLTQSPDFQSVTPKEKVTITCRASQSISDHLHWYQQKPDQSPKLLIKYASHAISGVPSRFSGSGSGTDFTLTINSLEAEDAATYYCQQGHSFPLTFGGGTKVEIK
binding result: binds

binder: 1A1 antibody (IgG1) (antibody, V domains shown, also called 1A1 Mab) VH: QVQLQESGPGLVKPSDTLSLTCAVSGYSITGGYSWHWIRQPPGKGLEWMGYIHYSGYTDFNPSLKTRITISRDTSKNQFSLKLSSVTAVDTAVYYCARKDSGRLLPYWGQGTLVTVSS VL: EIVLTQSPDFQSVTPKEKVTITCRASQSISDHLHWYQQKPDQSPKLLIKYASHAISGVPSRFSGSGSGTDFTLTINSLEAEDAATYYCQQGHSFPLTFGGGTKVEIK
binding result: binds

Every entry's value here was drawn from patent US20130315914A1.
